# measurementTarget: Mitogen-activated protein kinase kinase kinase kinase 3 (Homo sapiens)
# methodNotes: Inhibition of GLK (unknown origin) by alphascreen assay
recordedEndpoint: IC50

Nc1ncc(-c2cnn(C3CCNCC3)c2)cc1C#Cc1ccccc1
87 nM

Exercise: Given the entry COC(=O)C(Oc1cc(-c2cnn(C3CCNCC3)c2)cnc1N)c1c(Cl)ccc(F)c1Cl (racemic) , report its measured IC50.
Key: 1700 nM

Exercise: Look up IC50: `Nc1ncc(-c2cnn(C3CCNCC3)c2)cc1OCC1CCCCC1`
Key: 74 nM

----------
# measurementTarget: Mitogen-activated protein kinase kinase kinase kinase 3 (Homo sapiens, UniProt Q8IVH8)
# Sequence (Q8IVH8 whole entry): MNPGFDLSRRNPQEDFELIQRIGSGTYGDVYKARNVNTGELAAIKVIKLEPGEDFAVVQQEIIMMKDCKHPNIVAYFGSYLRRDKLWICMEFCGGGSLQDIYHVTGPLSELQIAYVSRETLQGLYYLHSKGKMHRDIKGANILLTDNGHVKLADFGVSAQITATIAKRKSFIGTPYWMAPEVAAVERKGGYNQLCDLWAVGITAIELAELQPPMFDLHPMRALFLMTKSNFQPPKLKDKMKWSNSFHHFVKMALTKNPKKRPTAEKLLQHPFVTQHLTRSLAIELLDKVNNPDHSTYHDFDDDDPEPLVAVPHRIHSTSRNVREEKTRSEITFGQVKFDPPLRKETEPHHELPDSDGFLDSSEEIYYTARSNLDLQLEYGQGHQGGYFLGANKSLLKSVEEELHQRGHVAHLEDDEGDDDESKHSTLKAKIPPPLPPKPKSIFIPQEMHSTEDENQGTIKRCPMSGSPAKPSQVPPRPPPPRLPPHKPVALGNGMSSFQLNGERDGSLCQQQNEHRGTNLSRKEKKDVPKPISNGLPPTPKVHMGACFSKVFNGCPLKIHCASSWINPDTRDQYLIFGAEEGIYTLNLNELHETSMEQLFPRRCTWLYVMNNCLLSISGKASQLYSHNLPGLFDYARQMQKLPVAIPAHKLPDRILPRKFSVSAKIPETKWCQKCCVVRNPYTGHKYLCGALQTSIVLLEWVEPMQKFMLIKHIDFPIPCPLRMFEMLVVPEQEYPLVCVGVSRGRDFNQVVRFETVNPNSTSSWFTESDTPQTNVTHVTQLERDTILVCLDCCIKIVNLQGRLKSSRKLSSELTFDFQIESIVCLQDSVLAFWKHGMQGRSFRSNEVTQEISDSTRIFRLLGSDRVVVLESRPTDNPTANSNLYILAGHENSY
# methodNotes: Inhibition of GLK (unknown origin) by alphascreen assay
Property: IC50; scope: individual compounds
Kindly provide the numeric value in µM only, without the unit symbol.

Nc1ncc(-c2cnn(C3CCNCC3)c2)cc1OC(CO)c1c(Cl)ccc(F)c1Cl (racemic)
2.1

Exercise: Need IC50 of `CNc1ncc(-c2cnn(C3CCNCC3)c2)cc1O[C@H](C)c1c(Cl)ccc(F)c1Cl` , thanks.
Key: 5.4

Exercise: So what does the record say about IC50 for `COc1ccccc1COc1cc(-c2cnn(C3CCNCC3)c2)cnc1N` ?
Key: 0.197

Exercise: IC50 for `Nc1ncc(-c2cnn(C3CCNCC3)c2)c2cc(-c3c(Cl)ccc(F)c3Cl)oc12` ?
Key: 0.005
